Would you mind telling me the reported EC50 of each entry?
# Tested on: RSV
# assayExplanation: In vitro activity against respiratory syncytial virus (HeLa cells)
# Type: cell-based
# runParameters: human respiratory syncytial virus, Table 7
Numeric only. Scale: nM

I have this compound here, O=C(Nc1nc2ccc(NC(=O)c3ccco3)cc2s1)c1ccc2ccccc2c1 [Compound 13] , and I need its recorded EC50. 14000

Return reported EC50; argument: O=C(Nc1nc2ccc3scnc3c2o1)c1cccc(Br)c1 [Compound 6] 1700

What value of EC50 has been reported for the following compound? O=C(Nc1nc2ccc3scnc3c2o1)c1ccc2cc(OCCN3CCOCC3)ccc2c1 [Compound 10] 2900

I'd like to know its EC50. The compound in question is COc1ccc(-c2ccc3nc(NC(=O)c4ccc5ccccc5c4)sc3c2)c(OC)c1 [Compound 19] 1200

Which EC50 reading was recorded for the compound Cc1nc2c(ccc3nc(NC(=O)c4cccc(Br)c4)oc32)s1 [Compound 3] ? 2300

Entry O=C(Nc1ccc2nc(NC(=O)c3ccc4ccccc4c3)sc2c1)c1ccccc1 [Compound 12] : reported EC50 = ? 7500

Bench note: what EC50 did Cc1nc2c(ccc3nc(NC(=O)c4ccc(S(=O)(=O)N5CC(C)OC(C)C5)cc4)oc32)s1 (stereo not drawn) [Compound 9] show? 1800

Fill in: EC50 of O=C(Nc1nc2ccc3scnc3c2o1)c1ccc2ccccc2c1 [Compound 4] is ___ 2800

The measurements presented in this section are drawn from patent US9884876B2.
